target: human CDK4 and genetically truncated (1-264) cyclin D3 (Homo sapiens); assay: Inhibition of CDK4/Cyclin D Retinoblastoma Kinase Activity; assay type: biochemical; details: 0.03 μM compound; Table 4; 0.03 µM
Sequence (P11802 whole entry, the tested form may be a part): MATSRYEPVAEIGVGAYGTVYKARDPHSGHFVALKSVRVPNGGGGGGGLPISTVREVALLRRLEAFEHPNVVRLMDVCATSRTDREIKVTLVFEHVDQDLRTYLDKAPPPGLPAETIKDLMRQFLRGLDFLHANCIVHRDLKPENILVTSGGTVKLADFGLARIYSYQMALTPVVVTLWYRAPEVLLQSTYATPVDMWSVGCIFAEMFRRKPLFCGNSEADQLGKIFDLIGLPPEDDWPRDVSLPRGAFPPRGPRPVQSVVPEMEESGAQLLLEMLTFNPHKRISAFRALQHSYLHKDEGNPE
Sequence (P30281 1-264 partner): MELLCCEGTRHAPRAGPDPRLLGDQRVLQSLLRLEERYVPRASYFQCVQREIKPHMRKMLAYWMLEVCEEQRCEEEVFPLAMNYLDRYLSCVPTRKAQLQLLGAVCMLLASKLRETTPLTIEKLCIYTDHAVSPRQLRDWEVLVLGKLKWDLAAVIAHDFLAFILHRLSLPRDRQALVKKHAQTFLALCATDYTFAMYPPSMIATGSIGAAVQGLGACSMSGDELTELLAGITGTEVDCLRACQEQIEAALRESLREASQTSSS
measurement.label: CDK4 % Inhibition at 0.03 μM (%)

Lab note: need CDK4 % Inhibition at 0.03 μM with human CDK4 and genetically truncated (1-264) cyclin D3 (Homo sapiens) for entry CCCCCCOc1ccc(C(=O)N2CCC(Nc3nc(N)c(C(=O)c4c(F)cccc4F)s3)CC2)cc1 [Example Q30] , please look it up.
42

Lab note: need CDK4 % Inhibition at 0.03 μM with human CDK4 and genetically truncated (1-264) cyclin D3 (Homo sapiens) for entry Nc1nc(NC2CCN(C(=O)c3cccs3)CC2)sc1C(=O)c1c(F)cccc1F [Example Q61] , please look it up.
49

Lab note: need CDK4 % Inhibition at 0.03 μM with human CDK4 and genetically truncated (1-264) cyclin D3 (Homo sapiens) for entry Nc1nc(NC2CCN(C(=O)c3cccs3)CC2)sc1C(=O)c1c(F)cccc1F [Example Q64] , please look it up.
48

Lab note: need CDK4 % Inhibition at 0.03 μM with human CDK4 and genetically truncated (1-264) cyclin D3 (Homo sapiens) for entry CCCCCCOc1ccc(C(=O)N2CCC(Nc3nc(N)c(C(=O)c4c(F)cccc4F)s3)CC2)cc1 [Example Q31] , please look it up.
35

====

System: HCT-116 cell line
Experiment: Inhibition of cell growth, tetrazolium salt (MTT) assay
Format: cell-based
Details: Homo sapiens, HCT-116, 120 h, first HCT-116 column (c4); MTT, three to five days; read-out: HCT-116 IC50
Description: Inhibition of Cell Growth: Assessment of Cytotoxicity: Inhibition of cell growth was measured using the tetrazolium salt assay, which is based on the ability of viable cells to reduce 3-(4,5-dimethylthiazol-2-yl)-2,5-[2H]-diphenyltetrazolium bromide (MTT) to formazan (Mossman, Journal of Immunological Methods, vol. 65 (1983), pp. 55-58). The water-insoluble purple formazan product was then detected spectrophotometrically. […]
Structures can show the parent of a compound that is named as a salt.
measurement.label: IC50 (nM)

What value of IC50 has been recorded for this entry: "CN(C)CCCc1ccc(S(=O)(=O)N2CCC(Nc3nc(N)c(C(=O)c4c(F)cccc4F)s3)CC2)cn1"
300

What value of IC50 has been recorded for this entry: CN1CCCC(Oc2ccc(S(=O)(=O)N3CCC(Nc4nc(N)c(C(=O)c5c(F)cccc5F)s4)CC3)cn2)C1 (stereo not shown) [Example H16, Hydrochloride]
57

What value of IC50 has been recorded for this entry: "Nc1nc(NC2CCN(S(=O)(=O)CCCn3ccnc3)CC2)sc1C(=O)c1c(F)cccc1F"
2300

What value of IC50 has been recorded for this entry: CC1C=CC(C)N1CCS(=O)(=O)N1CCC(Nc2nc(N)c(C(=O)c3c(F)cccc3F)s2)CC1 (mixture of isomers) [Example K27, Trifluoroacetic Acid Salt]
230

A = Nc1nc(NC2CCN(Cc3ccncc3)CC2)sc1C(=O)c1c(F)cccc1F
B = Nc1nc(NC2CCN(S(=O)(=O)CCc3ccncc3)CC2)sc1C(=O)c1c(F)cccc1F
Hi there, can you help? I need to know whether A or B has lower measured IC50. // output: label of the selected item
B

====

target: CDK2/Cyclin A (Homo sapiens, UniProt P24941); assay: Inhibition of CDK2/Cyclin A Retinoblastoma Kinase Activity; details: apparent Ki, CDK2/proteolyzed cyclin A, Rb fragment substrate, 25 μM ATP
Where a name gives a salt, the structure may show the parent alone.
measurement.label: Ki (nM)

Examples with answers:
What value of Ki has been recorded for this entry: "CN(C)CCN(C)c1ncc(S(=O)(=O)N2CCC(Nc3nc(N)c(C(=O)c4c(F)cccc4F)s3)CC2)cc1Br"
0.85

What value of Ki has been recorded for this entry: C[C@@H]1CN(c2ncc(S(=O)(=O)N3CCC(Nc4nc(N)c(C(=O)c5c(F)cccc5F)s4)CC3)cn2)C[C@H](C)N1 [Example G33, Hydrochloride Salt]
1

What value of Ki has been recorded for this entry: "Nc1nc(NC2CCN(C(=O)n3ccnc3)CC2)sc1C(=O)c1c(F)cccc1F"
17

P = Nc1nc(NC2CCN(S(=O)(=O)c3cccs3)CC2)sc1C(=O)c1c(F)cccc1F
Q = CN(CCCS(=O)(=O)N1CCC(Nc2nc(N)c(C(=O)c3c(F)cccc3F)s2)CC1)Cc1ccccc1
Sort P and Q by Ki descending and give the first. // output: label of the selected item
Q
